target: full length NS3/4a (Hepatitis C virus genotype 1b (isolate BK) (HCV)); experiment: NS3 Protease Assay (Example A), FRET-based; type: biochemical; settings: HCV NS3 protease assay, full length NS3/4a; read-out: Assay A IC50 (μM) average
Sequence (P26663 1027-1657): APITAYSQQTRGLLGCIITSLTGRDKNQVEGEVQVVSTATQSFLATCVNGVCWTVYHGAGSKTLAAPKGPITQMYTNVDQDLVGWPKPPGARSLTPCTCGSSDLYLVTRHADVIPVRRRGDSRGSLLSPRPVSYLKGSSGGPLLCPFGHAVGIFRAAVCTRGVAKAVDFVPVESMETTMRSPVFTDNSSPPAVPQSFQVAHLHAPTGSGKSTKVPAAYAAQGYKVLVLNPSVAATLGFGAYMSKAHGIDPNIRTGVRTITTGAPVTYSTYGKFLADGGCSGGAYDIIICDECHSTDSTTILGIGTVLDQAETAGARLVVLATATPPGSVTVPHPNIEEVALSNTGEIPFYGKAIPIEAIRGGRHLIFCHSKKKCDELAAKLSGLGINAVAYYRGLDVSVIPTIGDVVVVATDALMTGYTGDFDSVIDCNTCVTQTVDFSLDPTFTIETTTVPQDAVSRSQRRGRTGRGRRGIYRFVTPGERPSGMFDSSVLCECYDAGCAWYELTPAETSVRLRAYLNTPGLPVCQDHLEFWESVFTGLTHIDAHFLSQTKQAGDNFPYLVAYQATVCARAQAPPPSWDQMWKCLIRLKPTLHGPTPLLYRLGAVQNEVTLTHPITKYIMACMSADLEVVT
Measurement Type: IC50 (µM)

• CC[C@@H](N[C@H](C)CC(N)=O)c1ccc(Cl)c(C(=O)c2ccc(O)cc2)c1F = 2.1
• CC[C@@H](N)c1ccc(Cl)c(C(=O)c2cn[nH]c2)c1F = 4.4
• CC[C@@H](N[C@H](C)CC(N)=O)c1ccc(F)c(C(=O)c2ccccc2)c1F = 0.35
• CC[C@@H](N[C@H](C)CC(N)=O)c1ccc(Cl)c(C(=O)c2ccccc2)c1F [Example 83] = 0.5
• CC[C@@H](N[C@H](C)CC(N)=O)c1ccc(Cl)c(C(=O)c2cc(C)on2)c1F = 3.1
• CC[C@@H](N[C@@H](C)CC(N)=O)c1ccc(OC)c(C(=O)c2ccc(N)nc2)c1F = 0.18
• N[C@@H](c1ccc(Cl)c(C(=O)c2ccc(F)cc2)c1F)C1CC1 = 0.22
• CC[C@@H](N[C@H](C)CC(N)=O)c1ccc(Cl)c(C(=O)c2cccc(O)c2)c1F = 0.73
• CCC(NC1CCCC1C(N)=O)c1ccc(Cl)c(C(=O)c2ccc(N)nc2)c1F (single isomer, unassigned) [Example 125] = 0.29
• CC[C@@H](N)c1ccc(OC)c(C(=O)c2cccc(F)c2)c1F = 2.4
• CC[C@@H](CC(N)=O)N[C@H](CC)c1ccc(Cl)c(C(=O)c2ccc(N)nc2)c1F = 0.35
• CC[C@@H](N[C@H](C)CC(N)=O)c1ccc(Cl)c(C(=O)c2cccc(CO)c2)c1F = 0.54
• CC[C@@H](N[C@H](C)CC(N)=O)c1ccc(Cl)c(C(=O)c2ccnc(N)c2)c1F = 1.2
• CC[C@@H](NCCCO)c1ccc(Cl)c(C(=O)c2ccccc2)c1F = 0.26
• C[C@H](CC(N)=O)N[C@@H](c1ccc(Cl)c(C(=O)c2ccc(F)cc2)c1F)C1CC1 = 1.2
• CCC(NC1CCCC1C(N)=O)c1ccc(Cl)c(C(=O)c2ccc(N)nc2)c1F (single isomer, unassigned) [Example 127] = 1.6

###

target: full length NS3/4a (Hepatitis C virus genotype 1b (isolate BK) (HCV)); test: NS3 Protease Assay (Example A), FRET-based; assay type: biochemical; conditions: HCV NS3 protease assay, full length NS3/4a; read-out: Assay A IC50 (μM) average
Hi! Just check whether IC50 is below 0.5 µM. Below gives Satisfied, equal or above gives Not satisfied.

- CC[C@@H](N[C@H](C)CC(N)=O)c1ccc(Cl)c(C(=O)c2ccc(N)cn2)c1F [Example 156]: Not satisfied
- CC[C@@H](N)c1ccc(Cl)c(C(=O)c2cccc(O)c2)c1F [Example 204]: Satisfied
- C[C@H](CC(N)=O)N[C@@H](c1ccc(Cl)c(C(=O)c2ccc(N)c(Cl)c2)c1F)C1CC1 [Example 202]: Satisfied
- CC[C@@H](N[C@@H](C)CC(N)=O)c1ccc(Cl)c(C(=O)c2cccc(C(=O)O)c2)c1F [Example 122]: Not satisfied
- CC[C@H](NC(=O)C[C@@H](N)C(C)C)c1ccc(Cl)c(C(=O)c2cccnc2)c1F [Example 298]: Satisfied
- CC[C@@H](N)c1ccc(Cl)c(C(=O)c2ccc(=O)[nH]c2)c1F [Example 38]: Not satisfied
- CC[C@H](N)c1ccc(Cl)c(C(=O)c2ccc(Cl)nc2)c1F [Example 30]: Satisfied
- [2H]C([2H])([2H])C([2H])([2H])[C@@H](N)c1ccc(Cl)c(C(=O)c2ccccc2)c1F [Example 23]: Satisfied
- CC[C@@H](N[C@@H](C)CC(N)=O)c1ccc(Cl)c(C(=O)c2ccc(N)c(C#N)c2)c1F [Example 213]: Satisfied
- CC[C@@H](N[C@H](C)CC(N)=O)c1ccc(Cl)c(C(=O)c2ccc(-n3cccn3)nc2)c1F [Example 140]: Not satisfied
- CC[C@@H](N[C@@H](C)CC(N)=O)c1ccc(Cl)c(C(=O)c2ccc(CO)cc2)c1F [Example 186]: Satisfied
- CC[C@H](NC(=O)C1CCCNC1)c1ccc(Cl)c(C(=O)c2cccnc2)c1F (stereo partly shown) [Example 294]: Satisfied
- CC[C@@H](N)c1ccc(Cl)c(C(=O)c2ccccc2)c1F [Example 4]: Satisfied
- CC[C@@H](N[C@H](C)CC(N)=O)c1ccc(Cl)c(C(=O)c2ccccc2)c1F [Example 114]: Not satisfied
- C[C@H](CC(N)=O)N[C@@H](c1ccc(Cl)c(C(=O)c2ccc(C#N)cn2)c1F)C1CC1 [Example 245]: Not satisfied

###

Reported CC50 at 72 h values are given for each entry in this list.
experiment: Replicon Assay (Example B), Alamar Blue cytotoxicity CC50; format: cell-based; conditions: human, lower value of the cell pair
Measurement Type: CC50 at 72 h

- CC[C@@H](N[C@@H](C)CC(N)=O)c1ccc(OC)c(C(=O)c2cccc(C#N)c2)c1F: > 3 µM
- CC[C@@H](NCCC(N)=O)c1ccc(Cl)c(C(=O)c2cnc(N)cn2)c1F: > 10 µM
- CC[C@@H](NCCC(N)=O)c1ccc(Cl)c(C(=O)c2ccc(N)nc2)c1F: > 3 µM
- CC[C@@H](N[C@@H](C)CC(N)=O)c1ccc(OC)c(C(=O)c2ccccc2)c1F: > 10 µM

###

target: full length NS3/4a (Hepatitis C virus genotype 1b (isolate BK) (HCV)); experiment: NS3 Protease Assay (Example A), FRET-based; assay type: biochemical; details: HCV NS3 protease assay, full length NS3/4a; read-out: Assay A IC50 (μM) average
Measurement Type: IC50 (µM)

• CC[C@@H](N)c1ccc(OC)c(C(=O)c2ccccc2)c1F [Example 40] = 0.84
• [2H]C([2H])([2H])C([2H])([2H])[C@@H](N[C@@H](C)CC(N)=O)c1ccc(Cl)c(C(=O)c2ccc(N)c(Cl)c2)c1F [Example 267] = 0.085
• CC[C@@H](N[C@@H](C)CC(N)=O)c1ccc(Cl)c(C(=O)c2ccc(F)c(F)c2)c1F [Example 90] = 0.13
• C[C@@H](CC(N)=O)N[C@@H](c1ccc(Cl)c(C(=O)c2ccc(N)c(C#N)c2)c1F)C1CC1 [Example 255] = 0.24

###

Reported values of IC50 for individual entries
target: full length NS3/4a (Hepatitis C virus genotype 1b (isolate BK) (HCV)); assay: NS3 Protease Assay (Example A), FRET-based; assay type: biochemical; conditions: read-out: IC50 against the protease activity of the full length NS3/4a
Measurement Type: IC50

• CC[C@@H](N[C@@H](C)CC(N)=O)c1ccc(Cl)c(C(=O)c2ccc3c(n2)NC(=O)CO3)c1F [Example 229] = 1 to 5 µM
• C[C@H](CC(N)=O)N[C@@H](c1ccc(Cl)c(C(=O)c2ccc(N)cn2)c1F)C1CC1 [Example 254] = 1 to 5 µM
• CC[C@@H](N)c1ccc(C)c(C(=O)c2ccccc2)c1F [Example 39] = < 1 µM
• CC[C@H](N)c1ccc(Cl)c(C(=O)c2ccc(Cl)nc2)c1F [Example 30] = < 1 µM
• CC[C@@H](N)c1ccc(OC)c(C(=O)c2ccccc2)c1F [Example 40] = < 1 µM
• CC[C@@H](N)c1ccc(Cl)c(C(=O)c2cccc(C#N)c2)c1F [Example 18] = < 1 µM
• CC[C@@H](N[C@H](C)CC(N)=O)c1ccc(Cl)c(C(=O)c2ccc(O)cc2)c1F [Example 231] = 1 to 5 µM
• CC[C@@H](N)c1ccc(Cl)c(C(=O)c2ccc(C#N)cc2)c1F [Example 9] = < 1 µM
• C[C@H](CC(N)=O)N[C@@H](c1ccc(Cl)c(C(=O)c2ccc3c(c2)OCC(=O)N3)c1F)C1CC1 [Example 271] = 1 to 5 µM
• CC[C@@H](NC(=O)C1=CCNC1)c1ccc(Cl)c(C(=O)c2cccnc2)c1F [Example 291] = 1 to 5 µM
• CC[C@H](N)c1ccc(Cl)c(C(=O)c2ccc(N)nc2)c1F [Example 31] = < 1 µM
• CCC[C@@H](N[C@@H](C)CC(N)=O)c1ccc(Cl)c(C(=O)c2ccc(N)nc2)c1F [Example 258] = < 1 µM
• CCC(NC[C@H](C)C(N)=O)c1ccc(Cl)c(C(=O)c2cccnc2)c1F (stereo in doubt) [Example 175] = 1 to 5 µM
• C[C@H](CC(N)=O)N[C@@H](c1ccc(Cl)c(C(=O)c2ccc(N)nc2)c1F)C1CC1 [Example 155] = 1 to 5 µM
• CC[C@@H](N[C@@H](C)CO)c1ccc(Cl)c(C(=O)c2cccnc2)c1F [Example 165] = 1 to 5 µM
• CC[C@@H](N[C@H](C)CC(N)=O)c1ccc(Cl)c(C(=O)c2cc(C)c(N)cn2)c1F [Example 246] = 1 to 5 µM
• CC[C@@H](N[C@H](C)CC(N)=O)c1ccc(Cl)c(C(=O)c2cnc(N)cn2)c1F [Example 135] = 1 to 5 µM
